Tested on: amphotropic murine leukemia virus (AMLV)
Assay: microbe, parasite or virus in culture
Type: cell-based
Settings: Murine leukemia virus, read-out: IC50 AMLV, Table 2 screening results; specificity control
pIC50: −log10 of the molar value.
endpoint.label: pIC50

* COc1ccc(OC)c(/C=C/C(=O)N2CCN(C(=O)C3CC3)CC2)c1 | < 4.30
* O=C1CSc2ccc(C(=O)N3CCN(C(=O)c4cccs4)CC3)cc2N1 | < 3.52
* CCN(CC)S(=O)(=O)N1CCN(C(=O)C(=O)c2c(C)[nH]c3ccccc23)CC1 | < 4.30
* COc1ccc(O)cc1NCC(=O)N1CCN(S(=O)(=O)c2ccc3c(c2)CCC3)CC1 | < 4.30
* O=C(c1ccccc1)N1CCN(S(=O)(=O)c2ccc(Cl)c(C(F)(F)F)c2)CC1 | < 3.52
* COc1ccc(OC)c(CCC(=O)N2CCN(C(=O)c3cccc(OC(F)F)c3)CC2)c1 | < 4.30
* O=C(c1ccccc1)N1CCN(C(=O)c2csc(-c3ccccc3)n2)CC1 | < 3.52
* O=C(c1ccccn1)N1CCN(S(=O)(=O)c2ccc3ccccc3c2)CC1 | < 3.52

----------
System: HIV-1YU-2
Experiment: microbe, parasite or virus in culture
Type: cell-based
Details: read-out: IC50 YU-2; single round infection assay
endpoint.label: IC50

- Cc1ccc(C(C)C)c(OCC(=O)N2CCN(C(=O)c3ccccc3)CC2)c1 [Compound 49]: > 50 µM
- O=C(c1ccccc1)N1CCN(C(=O)c2ccc3c4c(cccc24)CC3)CC1: 15.7 µM
- Cc1nn(-c2ccccc2)c(C)c1C(=O)C(=O)N1CCN(C(=O)c2ccccc2)CC1 [Compound 36]: > 50 µM
- Cc1nn(-c2ccccc2)c(C)c1C(=O)C(=O)N1CCN(C(=O)c2ccccc2)CC1 [Compound 20]: > 300 µM
- Cc1ccc(C(C)C)c(OCC(=O)N2CCN(C(=O)c3ccccc3)CC2)c1 [Compound 18]: > 300 µM

----------
Assay: in vitro
Type: cell-based
Conditions: human
endpoint.label: CC50 at 7 days

* COc1cnc(-n2cnc(C)n2)c2[nH]cc(C(=O)C(=O)N3CC4CN(C(=O)C5=CCCCC5)CC4C3)c12 (stereo not shown) | > 100 µM

This collection of values is drawn from patent US9920073B2.
